target: GABAA receptor α1 subunit (native α1*-β2-α1-β2*-γ2 nα1-GABAAR) (Mus musculus, UniProt P22723+P62812); construct: main assembly alpha1/beta2/gamma2; assay: cryo-EM structure; competitive [3H]flunitrazepam scintillation proximity assay
PROPERTY MEASURED: pKi
As a rule, pKi stands for the negative log10 of the concentration, concentration in M.

Hello, please tell me recorded pKi for this one: `Cc1ccc(-c2nc3ccc(C)cn3c2CC(=O)N(C)C)cc1`
7.64

----------
molecular target: GABAA receptor α1 subunit (native α1-containing receptors, nα1-GABAARs) (Mus musculus, UniProt P22723+P62812); construct: native receptor ensemble purified from mouse brain (cerebellum excluded) in nanodiscs; with GABAA receptor γ2 subunit (Gabrg2); β2 subunit (Gabrb2) in the main assembly; assay: radioligand binding, scintillation proximity assay
PROPERTY MEASURED: pKd
As a rule, pKd stands for the negative log10 of the concentration, concentration in M.

Hello, please tell me recorded pKd for this one: `CN1C(=O)CN=C(c2ccccc2F)c2cc([N+](=O)[O-])ccc21`
8.22

From: paper PMC10550821
